# Tested on: SW-620 colon
# assay.info: NCI-60 one-dose screen, 48 h (100 = growth as untreated, 0 = no growth, -100 = all killed)
# condition.description: 10 µM unless noted
About 83,000 compounds went through this panel and 20% of them were active in at least one assay; those are over-represented in the sample as a whole.
quantity.name: growth (%)

{"columns": ["molecule", "quantity.name", "test.result"],
 "data": [
  ["COc1ccc(/C=C/C(=O)c2cc3c(N)c(C(=O)Nc4ccccc4C)sc3nc2C)cc1", "growth", 14.9],
  ["C[C@@H]1CC[C@@]2(OC1)O[C@H]1C[C@H]3[C@@H]4CC=C5C[C@@H](O[C@@H]6O[C@H](CO)[C@@H](O[C@@H]7O[C@@H](CO)[C@H](O)[C@H]7O)[C@H](O)[C@H]6O[C@@H]6O[C@@H](C)[C@H](O)[C@@H](O)[C@H]6O)CC[C@]5(C)[C@H]4CC[C@]3(C)[C@H]1[C@@H]2C", "growth", -86.4],
  ["Cc1ccc(C)n1/C=C/n1c(C)ccc1C", "growth", 110],
  ["CN1CCN(c2ccc3c(c2)nc(NNC(=O)c2cnccn2)c2cccn23)CC1", "growth", 34.1],
  ["O=C1/C(=C/c2ccc(Br)cc2)COc2ccc(O)c(O)c21", "growth", -35.9],
  ["CCCCn1sc(=O)n(Cc2ccc(CNC(=O)OCc3ccc4c(Cl)cc(Cl)c(O)c4n3)cc2)c1=O", "growth", 61],
  ["COc1ccc(C2C3=C(COC3=O)N(CCO)c3cc4c(cc32)OCCO4)cc1OC (centres undefined)", "growth", 13.2],
  ["COc1cc2cc(Oc3ccc(NC(=O)Nc4ccccc4)cc3)c(C)nc2cc1OCCN1CCCCC1", "growth", 70.3],
  ["CCCCC(=O)Nc1ncc(Cc2ccccc2Cl)s1", "growth", 24.5],
  ["COc1cc2c(c(OC)c1OC)C(=O)N[C@@H]1[C@@H](O)[C@@H](O)[C@H](O)C[C@@H]21", "growth", 109],
  ["COc1cccc(/C=C/C(=O)c2cc3c(N)c(C(=O)Nc4ccccc4C)sc3nc2C)c1", "growth", 1.68],
  ["Nc1c(C(=O)O)cc(Cl)cc1[N+](=O)[O-]", "growth", 99.5],
  ["Cc1ccc(N=Nc2c(N)nn(-c3ccccc3)c2N)cc1", "growth", 23.2],
  ["CCOC(=O)c1c(C)nc2ccccc2c1/C=C/c1ccc(OC)cc1", "growth", 85.1],
  ["CC[C@H](CC[C@@H](C)[C@H]1CC[C@H]2[C@@H]3CC[C@@H]4CC(=O)/C(=C\\c5ccncc5)C[C@]4(C)[C@H]3CC[C@]12C)C(C)C", "growth", 102],
  ["COc1ccc2cc(Cn3cc[n+](Cc4ccc5ccccc5c4)c3)ccc2c1", "growth", 44.4],
  ["CS(=O)(=O)Cc1cnc(C2OCCO2)s1", "growth", 113],
  ["O=C(CSc1nc2ccc([N+](=O)[O-])cc2[nH]1)Nc1ccc(Br)cc1", "growth", 74.5],
  ["CCN(CC)c1ccc(/C=N\\NC(=O)c2cccc(Nc3ccnc(C(F)(F)F)c3)c2)c(O)c1", "growth", 35.4]
]}
